Item-by-item account of %Inh
# Test system: ERK2;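 also: KINOMEscan kinase panel screen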
# Construct: gene MAPK1
# particulars: concentration: 1 μM, replicates: in singlicate; n = 1
I only need the number, in %, no unit after it.

Problem: Reported %Inh for ERK2, given Cl.Cl.NCC(NCc1ccc(-c2ccnc3[nH]ccc23)s1)c1ccccc1 (stereo not shown) ?
Solution: 0

Problem: Reported %Inh for ERK2, given COC(=O)Nc1nc2cc(Oc3ccc(NC(=O)Nc4cc(C(F)(F)F)ccc4F)cn3)ccc2[nH]1.Cl.Cl ?
Solution: 0

Problem: Reported %Inh for ERK2, given COC(=O)Nc1nc2ccc(Oc3ccc(NC(=O)Nc4cc(C(F)(F)F)ccc4F)cc3)cc2n1C.Cl ?
Solution: 0

Problem: Reported %Inh for ERK2, given CN(C)Cc1ccc(-c2ccc3c(Nc4ccc(Oc5ccccn5)cc4)ccnc3c2)o1 ?
Solution: 0

Problem: Reported %Inh for ERK2, given Cl.NC(=O)c1cccc(Nc2nccc(Nc3ccc(Oc4c(Cl)cccc4Cl)c(Cl)c3)n2)c1 ?
Solution: 0

Problem: Reported %Inh for ERK2, given FC(F)(F)c1ccc(/C=C/c2cncnc2Nc2ccc3[nH]c(Cc4ccccc4)nc3c2)cc1 ?
Solution: 0

Problem: Reported %Inh for ERK2, given O=C(Nc1cccc(-c2nn3ccccc3c2-c2ccnc(Nc3cccc(C(F)(F)F)c3)n2)c1)c1c(F)cccc1F ?
Solution: 0

Problem: Reported %Inh for ERK2, given Cl.c1ccc(-c2ccc3c(Nc4ccc5[nH]ccc5c4)ccnc3c2)nc1 ?
Solution: 0

Next:
Problem: Reported %Inh for ERK2, given COc1cccc(NC(=O)NC2CCN(c3ccnc(Nc4cc(OC)c(OC)c(OC)c4)n3)C2)c1 (stereo not shown) ?
Solution: 0

Problem: Reported %Inh for ERK2, given CC(C)c1nc(-c2cccc(NS(=O)(=O)c3c(F)cccc3F)c2F)c(-c2ccnc(Nc3ccc(N4CCOCC4)nc3)n2)s1 ?
Solution: 0

Problem: Reported %Inh for ERK2, given CCc1ccc(-c2ccc3c(c2)-c2c(cnn2C)S(=O)(=O)N3C)cc1 ?
Solution: 6

Problem: Reported %Inh for ERK2, given Cc1ccc(C)c(NC(=O)NC2CCN(c3ccnc(Nc4ccc(F)cc4)n3)C2)c1 (stereo not shown) ?
Solution: 0

Problem: Reported %Inh for ERK2, given O=C(O)C(F)(F)F.O=C(O)C(F)(F)F.O=c1[nH]ccc2nc(N[C@@H]3CCCNC3)nc(Nc3ccc(S(=O)(=O)N4CCOCC4)cc3)c12 ?
Solution: 72

Problem: Reported %Inh for ERK2, given CSc1cccc2c(-c3ccncn3)c(-c3ccc(F)cc3)nn12 ?
Solution: 6
